Please provide measured normalized growth for the entries that follow.
- method notes: chemical genetic growth profiling, strain panel (AID 1159580);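 also: tested at 20 µM; growth read once vehicle control cultures reached saturation at 30 °C; 1 = growth at the plate median or of vehicle wells; lower values mean less growth of the strain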
- condition parameters: S. cerevisiae deletion strains, growth OD, locus YML070W, strain DAK1, stronger effect = lower value
In all, about 5,500 compounds went through this assay and about 2,000 (36%) were called active. Roughly 18% stayed inconclusive and do not appear here. Some of the results follow.
Numbers only.

[
  {
    "molecule": "Cc1ccc2nc3c(nc2c1)-c1ccccc1C3=O",
    "normalized growth": 0.243
  }
]

# per-item lookup of normalized growth; items listed below
1. CCOC(=O)c1ccc(N=Cc2cc(Cl)cc(Cl)c2O)cc1
2. N#CC(C(=O)Nc1cccc(C(F)(F)F)c1)C(=S)Nc1ccccc1Cl (stereo not drawn)
3. COc1ccc(OC)c2nc3c(nc12)C(=O)c1ccccc1-3

0.198
0.966
0.979
